attribute-measured: melting point

molecule	attribute-measured	value-measured
NC(=O)CC[C@H](NC(=O)CCc1ccc(OCc2ccccc2)cc1OCc1ccccc1)C(=O)N1CCN(Cc2ccccc2)CC1	melting point	145 to 147 °C
COC(=O)C(NS(=O)(=O)c1ccc(-c2ccc(NC(=O)c3cc4cc(OC)ccc4o3)cc2)cc1)C(C)C (stereo unspecified)	melting point	234 to 235 °C
NNC(=O)Cc1c(F)cccc1F	melting point	177 to 178 °C
Oc1ccc(-c2nc3ccccc3o2)cc1	melting point	253 °C
Cc1c(C=CC(=O)O)cccc1[N+](=O)[O-]	melting point	222 °C

Request the reported melting point associated with COC(=O)C(=C(CBr)CBr)N1CC(N2C(=O)c3ccccc3C2=O)C1=O (stereo unspecified)
128 to 131 °C

Any idea what its melting point is? The molecule is CC(C)(C=C(Cl)Cl)C(=O)Nc1ccc(Cl)cc1
131 to 134 °C

I have this molecule here, Fc1ccccc1OCc1ccc2ccccc2n1 , and I need its recorded melting point.
84 to 86 °C

Could you share which melting point value was measured for CCOC(=O)CCC(C)C1CC=C2C3=C(CCC21C)C1(C)CCC(O)C(C)(C)C1CC3 (stereo unspecified) ?
122 to 124 °C

Would you mind telling me what melting point value was observed for CCOC(=O)C(=CC=C(O)C(=O)O)Sc1ccc2ccccc2c1 ?
182 °C

// returns reported melting point for input COC(=S)C(=Cc1ccccc1)N1CC(N2C(=O)c3ccccc3C2=O)C1=O (stereo unspecified)
170 to 171 °C

What measured melting point goes with CCOCCC(=Nc1ccc(Cl)cc1C(F)(F)F)n1ccnc1 ?
61 to 62 °C

Sample CC(=O)OC1CSC(Oc2ccc(-c3cccs3)nc2)C(OC(C)=O)C1OC(C)=O (stereo unspecified) — what was its melting point?
172 °C

Field request: melting point | item: CCCCS(=O)(=O)Oc1cn(C)c2ccccc2c1=O
143 to 144 °C

If you can, please state the reported melting point value of CCN1C(=O)C(C)(C)C(=O)N(C)c2cc(CN(CCn3ccc4oc(C)cc4c3=O)Cc3cncn3C)ccc21 .
106 to 108 °C

# query: melting point of entry CN1CC=C(c2cc3cc(Cl)ccc3o2)CC1
108 to 118 °C

Tell me the measured melting point of CN(C)c1cncc(C(=NCCc2ccccc2Cl)NC#N)c1 , please.
158 °C

Which melting point value belongs to COc1ccc2c(c1)C13CCN(C)C(C2)C1(OC(C)=O)CCOC3 (stereo unspecified) ?
161 to 163 °C

Quick one: melting point of NC(=O)c1ccc(-c2ccc3nnn(Cc4ccc5ncccc5c4)c3n2)cc1Cl ?
212 to 215 °C

What melting point value was documented for this molecule, Nc1c(-c2c[nH]nn2)c(=O)oc2ccccc12 ?
265 to 268 °C

Query: melting point; subject: CCSc1ccc(C(=O)O)nc1SCC
112 to 113 °C

====

attribute-measured: melting point

molecule	melting point
CC(C(=O)O)c1ccc(O)c(N)c1 (configuration not stated)	162 °C
Cc1cc(C)c2c(c1)OC(C)(COc1ccc([N+](=O)[O-])cc1)C=C2 (configuration not stated)	116 to 118 °C
CON=Cc1nn(-c2c(Cl)cc(C(F)(F)F)cc2Cl)c(N)c1SC(F)(F)F	129 to 132 °C
O=C(O)C=Cc1ccc(OCCC(c2ccccc2)(c2ccccc2)c2ccccc2)cc1	207 to 209 °C
O=C(O)CC(O)(Cn1cncn1)c1ccc(F)cc1F (configuration not stated)	185 to 187 °C
COCc1ccc(-c2ncccc2C#N)cc1	74 °C

Item COc1ccc(S(=O)(=O)N2Cc3cc4c(cc3CC2C(=O)NO)OCO4)cc1 (configuration not stated) has what recorded melting point?
166 °C

Which melting point value is on record for CN(C)CCCOc1ccc(C[C@H](NC(=O)[C@@H]2CCCN2S(=O)(=O)c2cc(Cl)sc2Cl)C(=O)O)cc1 ?
> 200 °C

Sample CCc1nnc2ccc(-c3cccc(C(F)(F)F)c3)nn12 — what was its melting point?
183 to 185 °C

I would be grateful if you could share the reported melting point for COc1cc(OC)c(/C=C2/C(=O)NC(=O)/C2=C/c2ccccc2)c(OC)c1 .
246 to 248 °C

Requested read-out: melting point. Entry: N#Cc1ccc(-c2nc(C(F)(F)F)c(C(=O)O)s2)cc1
195 to 196 °C

Param item = CCC1(OC)CCc2c(C)c(O)c(C)c(C)c2O1 (configuration not stated) ; retrieve measured melting point.
96.5 to 98.5 °C

Any idea what melting point was measured for N#Cc1cccc(NCC(=O)Nc2c(Cl)ccc3nc(N4CC[C@@H](O)C4)ccc23)c1 ?
254 to 256 °C

What value of measured melting point is listed for CN1Cc2c(-c3nc(CCl)cs3)ncn2-c2ccccc2C1=O ?
248 to 249 °C

Name the reported melting point value associated with the molecule CCOC(=O)Nc1ccc(C23CC4CC(CC(C4)C2)C3)cc1
132 to 134 °C

Give the measured melting point of Cc1nc(-c2cn(Cc3ccc(F)cc3)nn2)sc1C(=O)NCc1cccnc1 .
212 to 213 °C

Fill in: melting point of CCn1nc(-c2ccncc2)c(C(C)=O)c(Nc2ccc(C(=O)O)cc2)c1=O is ___
252 to 253 °C

Any idea what its melting point is? The molecule is CC(C(=O)O)c1ccc(Oc2ccc(F)cc2)c(Cl)c1 (configuration not stated)
68 to 70 °C

// melting point lookup, key: CCC(Cc1ccc(OC)c(S(N)(=O)=O)c1)NC(=O)C(F)(F)F (configuration not stated)
189 to 192 °C
